Biological target: Cytochrome P450 2D6 (Homo sapiens)
Test: Cytochrome P450 family 2 subfamily D member 6 (CYP2D6) small molecule antagonists: luciferase biochemical (cell-free) qHTS assay (AID 1645840); further: nearly all actives have a fitted effect of over 55% in size
Conditions: P450-Glo CYP2D6 enzyme, luciferin luminescence, 1 h; series mostly up to 57.4 µM
Records with an inconclusive call do not appear. The source made the active and inactive calls. The call rests on the fitted dose curve; in most records, active means well fitted inhibition curve with a large enough effect in the repeat runs; inconclusive means weak or mixed curves; inactive means flat fitted curve, though single readings scatter.
Lab note: assign the record to one of active, inactive

>>> category("Cc1ccc2c(Br)cc(Br)c(O)c2n1")
"inactive"

// next entry
Request: Record request — test call for "Cc1cccc(C)c1NC(=O)CN1CCCCCC1"
Response: active

###

Assay: qHTS of pediatric cancer cell lines to identify multiple opportunities for drug repurposing: Primary screen for TC32 cells (AID 1347089); further: nearly all actives have a fitted effect of over 60% in size
Conditions: TC32 Ewing sarcoma viability, CellTiter-Glo luminescence, 48 h; series mostly up to 45.8 µM
Results filed as inconclusive are left out. The source made the active and inactive calls. Calls come from the whole dose curve; as a rule, active = well fitted cell-killing curve with a large enough effect; inconclusive = small, poorly fitted or top-dose-only effect; inactive = flat fitted curve, though single readings scatter.
Outcomes you can answer with include only these: class 1 = active, class 0 = inactive

Please review the following examples before continuing.
>>> category("CCCc1ncc(C[n+]2ccccc2C)c(N)n1")
"class 0"
>>> category("NCc1ccccc1Sc1ccccc1CO")
"class 0"
>>> category("C#C[C@]1(O)CC[C@H]2[C@@H]3CCC4=Cc5oncc5C[C@]4(C)[C@H]3CC[C@@]21C")
"class 0"
>>> category("COc1ccc(CN(CCN(C)C)c2ncccn2)cc1")
"class 0"
>>> category("C/C=C/c1ccc(O)c(OC)c1")
"class 0"

Field: next compound
Request: Call for entry "Nc1nc(Cl)nc2c1ncn2[C@@H]1O[C@H](CO)[C@@H](O)[C@@H]1F" :
Response: class 1

###

Test: MultiTox-Fluor Cytotoxicity Assay - LYMP1-001 - Dead Cells (AID 946);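 further: cells exposed to compound for 16 h; 0% = DMSO and 100% = tetraoctylammonium bromide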
Details: LYMP1-001 lymphoblastoid cells, dead-cell protease fluorescence; series mostly up to 92.2 µM
Records with an inconclusive call do not appear. Calls of active or inactive are those of the source. Calls come from the whole dose curve; as a rule, active = well fitted cell-killing curve with a large enough effect; inconclusive = small, poorly fitted or top-dose-only effect, or effect the other way; inactive = flat fitted curve, though single readings scatter.
measured-parameter: outcome

Previously resolved entries follow.
>>> endpoint_value("COc1cc([C@H]2Oc3cc([C@H]4Oc5cc(O)cc(O)c5C(=O)[C@@H]4O)ccc3O[C@@H]2CO)ccc1O")
"inactive"
>>> endpoint_value("COc1ccc(C(Cl)=C(c2ccc(OC)cc2)c2ccc(OC)cc2)cc1")
"inactive"
>>> endpoint_value("CCOc1ccc(NC(C)=O)cc1")
"inactive"
>>> endpoint_value("OC[C@H]1O[C@@H]2O[C@H]3[C@H](O)[C@@H](O)[C@@H](O[C@H]4[C@H](O)[C@@H](O)[C@@H](O[C@H]5[C@H](O)[C@@H](O)[C@@H](O[C@H]6[C@H](O)[C@@H](O)[C@@H](O[C@H]7[C@H](O)[C@@H](O)[C@@H](O[C@H]8[C@H](O)[C@@H](O)[C@@H](O[C@H]1[C@H](O)[C@H]2O)O[C@@H]8CO)O[C@@H]7CO)O[C@@H]6CO)O[C@@H]5CO)O[C@@H]4CO)O[C@@H]3CO")
"inactive"

Request: I would be grateful if you could share the reported outcome for "COc1ccc(C(=O)c2ccccc2)c(O)c1" .
Response: inactive

Request: Param item: "CCOc1ccccc1C(N)=O"
Response: inactive

Request: For "O=C(O)c1ccc(S(=O)(=O)N(Cl)Cl)cc1" then?
Response: inactive

Request: Now give it for "C=C[C@H]1CN2CC[C@H]1C[C@@H]2[C@@H](O)c1ccnc2ccc(OC)cc12" too.
Response: inactive

Request: Try "CCCN(CCC)S(=O)(=O)c1ccc(C(=O)O)cc1" next.
Response: inactive

Request: Note, next up: CCCCC(CC)COC(=O)c1ccc(N(C)C)cc1 (stereo not given)
Response: inactive

###

Assay: qHTS assay for small molecule disruptors of the mitochondrial membrane potential - 5 hr assay (AID 651755); further: nearly all actives have a fitted effect of over 40% in size
Details: JC-1-type ratio dye; series mostly up to 92.2 µM
Records with an inconclusive call do not appear. Calls of active or inactive are those of the source. The call rests on the fitted dose curve.
Select the correct class. Options are active, inactive and nothing else.

Reference set (3 entries):
>>> category("CCCCC(CC)COC(=O)c1ccc(N(C)C)cc1 (stereo not given)")
"inactive"
>>> category("COc1cc([C@H]2Oc3cc([C@H]4Oc5cc(O)cc(O)c5C(=O)[C@@H]4O)ccc3O[C@@H]2CO)ccc1O")
"active"
>>> category("COc1ccc(C(Cl)=C(c2ccc(OC)cc2)c2ccc(OC)cc2)cc1")
"active"

Request: For "Oc1c(Cl)cc(Cl)c(Cl)c1Cc1c(O)c(Cl)cc(Cl)c1Cl" , which call appears in the assay record?
Response: active

Request: "C=C[C@H]1CN2CC[C@H]1C[C@@H]2[C@@H](O)c1ccnc2ccc(OC)cc12" , same question.
Response: inactive

###

Assay: qHTS assay for small molecule activators of the human pregnane X receptor (PXR) signaling pathway (AID 720659); further: 0% is about no effect
Conditions: DPX-2 HepG2 CYP3A4-luciferase, 24 h; series mostly up to 92.3 µM
Active and inactive are the calls of the source. The rule behind the calls is not given here.
measured-parameter: outcome

>>> endpoint_value("CCCCCCCCCCCCCCCCO")
"inactive"
>>> endpoint_value("CCCCCCCC/C=C\\CCCCCCCCN")
"inactive"
>>> endpoint_value("CCOc1ccccc1C(N)=O")
"inactive"

###

Experiment: qHTS of pediatric cancer cell lines to identify multiple opportunities for drug repurposing: Primary screen for OHS-50 cells (AID 1347103); further: nearly all actives have a fitted effect of over 40% in size
Conditions: OHS-50 osteosarcoma viability, CellTiter-Glo luminescence, 48 h; series mostly up to 57.3 µM
Records with an inconclusive call do not appear. Active and inactive are the calls of the source. Calls come from the whole dose curve; as a rule, active = well fitted cell-killing curve with a large enough effect; inconclusive = small, poorly fitted or top-dose-only effect; inactive = no such curve, though single readings can be large or run the other way.
Permitted responses: 1.0 (active), 0.0 (inactive)

Worked examples, 3 compounds total:
>>> category("Cc1cn([C@H]2C[C@H](F)[C@@H](CO)O2)c(=O)[nH]c1=O")
0.0
>>> category("CCCCCCCCCCCCCCCCO")
0.0
>>> category("CN(C)CCOC(=O)C(c1ccccc1)C1(O)CCCC1 (configuration not stated)")
0.0

Request: Look up the recorded call for "COc1cc(C(=S)N2CCOCC2)ccc1O" in this test.
Response: 0.0

Request: Entry "CC(=O)NC(=O)c1ccccc1O" please
Response: 0.0

Request: // next record "CCN1/C(=C/C=C/c2sc3ccccc3[n+]2CC)Sc2ccccc21"
Response: 1.0

Request: Next compound: "CCCCN1C[C@H](O)[C@@H](O)[C@H](O)[C@H]1CO"
Response: 0.0

###

Assay: qHTS of pediatric cancer cell lines to identify multiple opportunities for drug repurposing: Primary screen for A673 cells (AID 1347092); further: nearly all actives have a fitted effect of over 45% in size
Conditions: A673 Ewing sarcoma viability, CellTiter-Glo ATP luminescence, 48 h; series mostly up to 46 µM
Records with an inconclusive call do not appear. Calls of active or inactive are those of the source. The call rests on the fitted dose curve; in most records, active means well fitted cell-killing curve with a large enough effect; inconclusive means small, poorly fitted or top-dose-only effect; inactive means no such curve, though single readings can be large or run the other way.
Respond using exactly one of the listed classes: true for active, false for inactive

Recorded results for 3 compounds are shown here.
>>> category("FC1(F)C(F)(F)C(F)(F)C2(F)C(F)(F)C(F)(F)C(F)(F)C(F)(F)C2(F)C1(F)F (stereo unspecified)")
"false"
>>> category("CC1CCc2c(N3CCC(O)CC3)c(F)cc3c(=O)c(C(=O)O)cn1c23 (stereo unspecified)")
"false"
>>> category("O=C1C(=O)c2ccccc2C(O)=C1C1CCC(c2ccc(Cl)cc2)CC1 (stereo unspecified)")
"false"

Request: Assay result, entry "CC(C)(C)CC(C)(C)c1ccc(O)c(-n2nc3ccccc3n2)c1" — outcome?
Response: false

Request: Follow-up entry: "CC(=O)Oc1ccc(C)cc1"
Response: false

Request: Now consider "C#C[C@]1(O)CC[C@H]2[C@@H]3[C@H](C)CC4=C(CCC(=O)C4)[C@H]3CC[C@@]21C" and answer again.
Response: false

Request: "O=C(O)CCNC(=O)c1ccccc1" ?
Response: false

Request: Continue with "O=C(Nc1cccc(C2=NCCN2)c1)Nc1cccc(C2=NCCN2)c1"
Response: false

###

Assay: qHTS of pediatric cancer cell lines to identify multiple opportunities for drug repurposing: Primary screen for Rh41 cells (AID 1347108);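 further: luminescence drop marks cytotoxic hits; nearly all actives have a fitted effect of over 70% in size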
Settings: Rh41 rhabdomyosarcoma viability, CellTiter-Glo luminescence, 48 h; series mostly up to 46 µM
Inconclusive results are not listed. The source made the active and inactive calls. Calls come from the whole dose curve; as a rule, active = well fitted cell-killing curve with a large enough effect; inconclusive = small, poorly fitted or top-dose-only effect; inactive = no such curve, though single readings can be large or run the other way.
Outcome field: choose from true = active, false = inactive

Known results for compounds:
>>> category("COc1cc(C(=O)N2CCCCCCC2)cc(OC)c1OC")
"false"
>>> category("Nc1ccc(S(=O)(=O)NCc2ccccc2)cc1")
"false"
>>> category("Cc1c[nH]c2ccccc12")
"false"

Request: Recorded test call requested for "CCCCOC(=O)CC(CC(=O)OCCCC)(OC(C)=O)C(=O)OCCCC"
Response: false

Request: Next: "CC(=O)O[C@]1(C(C)=O)CC[C@H]2[C@@H]3C=C(C)C4=CC(=O)CC[C@]4(C)[C@H]3CC[C@@]21C"
Response: false

Request: Record: "O=C(O)Cc1csc(-c2ccc(Cl)cc2)n1"
Response: false

Request: Repeat for the following compound: COC(=O)C(c1ccccc1Cl)N1CCc2sccc2C1 (stereo not given)
Response: false

Request: Next record, please: "N[C@H](C(=O)O)[C@@H](O)c1ccc(O)c(O)c1"
Response: false

Request: Now consider "COc1ccc(C(=O)c2ccccc2)c(O)c1" .
Response: false
